- method.description: Tanguay_ZF_120hpf_CFIN_legacy: (Legacy) Oregon State University Tanguay Lab 120 Hour Post-fertilization zebrafish Assay for Caudal Fin Malformation (AID 2283649)
Inconclusive results are not listed. Activity calls are given as the source filed them. How the source made its calls: active means hit-call score of the fitted dose curve at least 0.9, where 1 is the maximum; inconclusive means response in the unintended direction; inactive means score below 0.9.
Select the matching outcome among TRUE (active), FALSE (inactive)

Please review the following examples before continuing.
substance_smiles=C=CC(N)=O answer_label=FALSE
substance_smiles=Cc1cccc([N+](=O)[O-])c1 answer_label=FALSE
substance_smiles=CCCCCCCCOC(=O)c1ccccc1C(=O)OCCCCCCCC answer_label=FALSE
substance_smiles=Cc1cc(-c2ccc(N)c(C)c2)ccc1N answer_label=FALSE

Data request: Dear all, I need the recorded test outcome for `CO/C=C(/C(=O)OC)c1ccccc1COc1cccc(C(F)(F)F)n1` , thank you.
Data returned: TRUE

* * *

- target.or.test.system: Heat shock factor protein 1 (Homo sapiens) (UniProt Q00613)
- Sequence (Q00613 whole entry, looked up): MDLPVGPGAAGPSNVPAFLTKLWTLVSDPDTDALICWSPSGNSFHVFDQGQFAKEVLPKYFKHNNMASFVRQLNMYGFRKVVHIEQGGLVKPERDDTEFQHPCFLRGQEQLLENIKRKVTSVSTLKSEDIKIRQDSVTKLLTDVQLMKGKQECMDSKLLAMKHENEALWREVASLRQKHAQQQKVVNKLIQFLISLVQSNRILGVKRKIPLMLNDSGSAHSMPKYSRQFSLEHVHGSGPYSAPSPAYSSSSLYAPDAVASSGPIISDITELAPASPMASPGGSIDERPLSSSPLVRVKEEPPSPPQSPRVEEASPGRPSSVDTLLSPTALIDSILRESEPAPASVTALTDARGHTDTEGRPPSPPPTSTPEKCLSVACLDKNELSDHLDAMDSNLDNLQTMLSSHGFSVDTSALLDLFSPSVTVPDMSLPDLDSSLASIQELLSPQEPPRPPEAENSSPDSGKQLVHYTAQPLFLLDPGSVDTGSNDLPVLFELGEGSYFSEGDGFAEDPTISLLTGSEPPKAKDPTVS
- method.description: ATG_HSE_CIS: Attagene CIS-FACTORIAL HepG2 Assay for human Heat Shock Transcription Factor 1 (HSE) (AID 2282953)
- condition.label: HepG2 HSE cis-reporter, Attagene RNA transcription; actives raise or lower the signal
Active and inactive are the calls of the source. Rule for the calls: active = hit-call score of the fitted dose curve at least 0.9, where 1 is the maximum; inactive = score below 0.9.
Select the matching outcome among t = active, f = inactive

Please review the following examples before continuing.
substance_smiles=COS(=O)(=O)OC answer_label=f
substance_smiles=ClC1=C(Cl)[C@]2(Cl)[C@@H]3[C@@H]4C[C@@H]([C@H]5O[C@@H]45)[C@@H]3[C@@]1(Cl)C2(Cl)Cl answer_label=f
substance_smiles=CCOP(=S)(OCC)SCSC(C)(C)C answer_label=f
substance_smiles=C[C@]12CCC(=O)C=C1CC[C@@H]1[C@@H]2CC[C@]2(C)C(=O)CC[C@@H]12 answer_label=f

Now let's try a different one.
Data request: Dear all, I need the recorded test outcome for `CCC(=O)O[C@H]1CC[C@H]2[C@@H]3CCC4=CC(=O)CC[C@]4(C)[C@H]3CC[C@]12C` , thank you.
Data returned: t

* * *

- Read-out: Pro-epidermal growth factor (Homo sapiens)
- method.description: LTEA_HepaRG_EGF: Life Technologies and Expression Analysis (LTEA) Assay for Epidermal growth factor (EGF) using HepaRG (AID 2283489)
- condition.label: mRNA level, 48 h; actives raise or lower the signal
Activity calls are given as the source filed them. The calls were made as follows: active = hit-call score of the fitted dose curve at least 0.9, where 1 is the maximum; inactive = score below 0.9.
Select the matching outcome among 1 (yes) (active), 0 (no) (inactive)

Please review the following examples before continuing.
compound=CC(C)(O)C(=O)Nc1ccc([N+](=O)[O-])c(C(F)(F)F)c1 answer_label="1 (yes)"
compound=CC#Cc1cc(C)nc(Nc2ccccc2)n1 answer_label="0 (no)"
compound=CCOC(=O)C(O)(c1ccc(Cl)cc1)c1ccc(Cl)cc1 answer_label="0 (no)"
compound="Clc1ccc(C(c2ccccc2Cl)C(Cl)(Cl)Cl)cc1 (configuration not stated)" answer_label="0 (no)"
compound=CCCCCCCCOC(=O)c1ccccc1C(=O)OCCCCCCCC answer_label="0 (no)"

Data request: Dear all, I need the recorded test outcome for `CC(C)(c1ccccc1)c1ccc(O)cc1` , thank you.
Data returned: 0 (no)

Data request: Dear all, I need the recorded test outcome for `NS(=O)(=O)C(F)(F)C(F)(F)C(F)(F)C(F)(F)C(F)(F)C(F)(F)C(F)(F)C(F)(F)F` , thank you.
Data returned: 1 (yes)

* * *

- Read-out: Paternally Expressed 10 (PEG10), PEG10 (gene 23089)
- method.description: LTEA_HepaRG_PEG10: Life Technologies and Expression Analysis (LTEA) Assay for Paternally Expressed 10 (PEG10) using HepaRG (AID 2283520)
- condition.label: mRNA level, 48 h; actives raise or lower the signal
Active and inactive are the calls of the source. Rule for the calls: active = hit-call score of the fitted dose curve at least 0.9, where 1 is the maximum; inactive = score below 0.9.
Select the matching outcome among active, inactive

Please review the following examples before continuing.
substance_smiles=CCNc1nc(NC(C)C)nc(SC)n1 answer_label=active
substance_smiles=O=C(O)C(F)(F)C(F)(F)C(F)(F)C(F)(F)C(F)(F)F answer_label=inactive

Data request: Dear all, I need the recorded test outcome for `O=C(O)C(F)(F)C(F)(F)C(F)(F)C(F)(F)C(F)(F)C(F)(F)C(F)(F)C(F)(F)C(F)(F)F` , thank you.
Data returned: active

Data request: Dear all, I need the recorded test outcome for `Nn1cnnc1` , thank you.
Data returned: inactive

Data request: Dear all, I need the recorded test outcome for `O=NN(c1ccccc1)c1ccccc1` , thank you.
Data returned: inactive

Data request: Dear all, I need the recorded test outcome for `O=C(O)C(F)(F)C(F)(F)C(F)(F)C(F)(F)C(F)(F)C(F)(F)C(F)(F)C(F)(F)F` , thank you.
Data returned: inactive

* * *

- Read-out: CD40, CD40 (gene 958)
- method.description: BSK_LPS_CD40: BioMAP Diversity Plus: LPS Assay for CD40 Biomarker Activity (AID 2283076)
- condition.label: primary human HUVEC with PBMC; actives raise or lower the signal
Active and inactive are the calls of the source. Rule for the calls: active = hit-call score of the fitted dose curve at least 0.9, where 1 is the maximum; inactive = score below 0.9.
Select the matching outcome among yes = active, no = inactive

compound=O=S(=O)(O)C(F)(F)C(F)(F)C(F)(F)C(F)(F)C(F)(F)C(F)(F)F answer_label=no
compound=Cc1cccc(C)c1N answer_label=no
compound=CC(c1ccc(O)cc1)(c1ccc(O)cc1)c1ccc(O)cc1 answer_label=yes
compound=C[C@]12CCC(=O)C=C1CC[C@@H]1[C@@H]2CC[C@@]2(C)[C@H]1CC[C@]2(C)O answer_label=no
compound="Clc1ccc(C(c2ccccc2Cl)C(Cl)(Cl)Cl)cc1 (stereo unspecified)" answer_label=yes
compound=O=NN(c1ccccc1)c1ccccc1 answer_label=no
compound=C=CC(=O)NCNC(=O)C=C answer_label=no
compound=ClC1=C(Cl)[C@]2(Cl)[C@@H]3[C@@H]4C[C@@H]([C@H]5O[C@@H]45)[C@@H]3[C@@]1(Cl)C2(Cl)Cl answer_label=no
compound=O=C(NC(=O)c1cc(F)c(F)cc1Cl)Nc1cc(F)ccc1N1CCC(C(=O)O)CC1 answer_label=no
compound=c1ccc(-c2ccccc2)cc1 answer_label=no

Data request: Dear all, I need the recorded test outcome for `Cc1ccccc1O` , thank you.
Data returned: no

* * *

- Read-out: Bcl-2 (BAX) gene, BAX (gene 581)
- method.description: LTEA_HepaRG_BAX: Life Technologies and Expression Analysis (LTEA) Assay for Bcl-2 (BAX) gene using HepaRG (AID 2283470)
- condition.label: mRNA level, 48 h; actives raise or lower the signal
Activity calls are given as the source filed them. The calls were made as follows: active = hit-call score of the fitted dose curve at least 0.9, where 1 is the maximum; inactive = score below 0.9.
Select the matching outcome among 1 (active), -1 (inactive)

Please review the following examples before continuing.
molecule=Nn1cnnc1 answer_label=-1
molecule=O=S(=O)(O)C(F)(F)C(F)(F)C(F)(F)C(F)(F)C(F)(F)C(F)(F)F answer_label=-1
molecule=CN(C)c1nc(=O)n(C2CCCCC2)c(=O)n1C answer_label=-1
molecule=C[C@]12CCC(=O)C=C1CC[C@@H]1[C@@H]2CC[C@@]2(C)[C@H]1CC[C@]2(C)O answer_label=-1
molecule=CO/C=C(/C(=O)OC)c1ccccc1COc1cccc(C(F)(F)F)n1 answer_label=1
molecule=Cc1ccccc1O answer_label=-1
molecule=O=NN(c1ccccc1)c1ccccc1 answer_label=-1
molecule=ClC1=C(Cl)[C@]2(Cl)[C@@H]3[C@@H]4C[C@@H]([C@H]5O[C@@H]45)[C@@H]3[C@@]1(Cl)C2(Cl)Cl answer_label=-1
molecule=O=C(NC(=O)c1c(F)cccc1F)Nc1cc(Cl)c(OC(F)(F)C(F)F)c(Cl)c1 answer_label=-1
molecule="CC(C)C(=O)OCC(C)(C)C(OC(=O)C(C)C)C(C)C (configuration not stated)" answer_label=-1

Now let's try a different one.
Data request: Dear all, I need the recorded test outcome for `O=S(=O)(O)C(F)(F)C(F)(F)C(F)(F)C(F)(F)F` , thank you.
Data returned: -1

* * *

- method.description: ATG_AP_1_CIS: Attagene CIS-FACTORIAL HepG2 Assay for human Activator Protein 1 (AP-1) (AID 2282931)
- condition.label: HepG2 Attagene cis-factorial AP-1 reporter mRNA; actives raise or lower the signal
- Protocol: ATG_CIS is a cell-based, multiplexed-readout assay that uses HepG2, a human liver cell line, with measurements taken at 24 hours after chemical dosing in a 24-well plate.ATG_AP_1_CIS is one of 52 assay component(s) measured or calculated from the ATG_CIS assay. […] This assay endpoint, ATG_AP_1_CIS, was analyzed with bidirectional fitting relative to DMSO as the negative control and baseline of activity. […]
Activity calls are given as the source filed them. How the source made its calls: active means hit-call score of the fitted dose curve at least 0.9, where 1 is the maximum; inactive means score below 0.9.
Select the matching outcome among active, inactive

Please review the following examples before continuing.
molecule=Cc1cccc([N+](=O)[O-])c1 answer_label=inactive
molecule=CCCN(CCC)N=O answer_label=inactive
molecule="Clc1ccc(C(c2ccccc2Cl)C(Cl)(Cl)Cl)cc1 (centres undefined)" answer_label=active
molecule=C=CC(N)=O answer_label=inactive
molecule="C1CC2OC2CC1C1CO1 (centres undefined)" answer_label=inactive

Data request: Dear all, I need the recorded test outcome for `O=C(NC(=O)c1c(F)cccc1F)Nc1cc(Cl)c(OC(F)(F)C(F)F)c(Cl)c1` , thank you.
Data returned: inactive

Data request: Dear all, I need the recorded test outcome for `Clc1ccc(Cl)cc1` , thank you.
Data returned: inactive

Data request: Dear all, I need the recorded test outcome for `Nc1ccc(-c2ccc(N)cc2)cc1` , thank you.
Data returned: inactive

Data request: Dear all, I need the recorded test outcome for `Nn1cnnc1` , thank you.
Data returned: inactive
